system: DU-145 prostate; experiment: NCI-60 one-dose screen, 48 h; conditions: 10 µM
Compounds without any hit were thinned out: in the full panel of roughly 83,000, 20% have a hit. Calls of active or inactive are those of the source. How the source made its calls: active means growth percent below 10; inactive means the rest.
Possible outcomes: active, inactive

1) NC(=O)c1cccc(-n2ccc3cc(NC(=O)Nc4ccc(Cl)c(C(F)(F)F)c4)ccc32)n1 = inactive
2) Cc1ccc(C(=O)C2C(=O)C3CCC2C3)cc1 (stereo not given) = inactive
3) CC(C)(C)c1ccc(S(=O)(=O)N[C@H]2CC[C@H]3[C@@H]4CCc5cc(O)ccc5[C@H]4CC[C@]23C)cc1 = inactive
4) Cc1cc(SCc2ccccc2)nc(N)n1 = inactive
5) O=C(Nc1cc([N+](=O)[O-])c2[nH]c(=O)c3ccccc3c2c1)C(F)(F)F = inactive
6) O=C1CCn2c1c(O)c1ccccc1c2=O = inactive
7) CN(C)CCOc1cccc(-c2nc3sccn3c2-c2ccnc(S(C)(=O)=O)n2)c1 = inactive
8) Cc1ccc(C(C)C)c(O)c1NC(=O)OC(C)C = inactive
9) COc1ccc(C(c2ccc(OCCN(C)C)cc2)c2cc3ccccc3c3ccccc23)cc1 (stereo not given) = inactive
10) CCOC(=O)C1=CSC2=NC3=C(CCC/C3=C\c3ccc(Cl)cc3)C(c3ccc(Cl)cc3)N12 (stereo not given) = inactive
11) O=C(O)c1ccc(-n2cc(CNc3ccc(Oc4ccccc4)cc3)c(-c3ccccc3)n2)cc1 = inactive
12) CC(C)(C)OC(=O)N1CCc2c(sc3ncnc(N/N=C/c4ccccc4Br)c23)C1 = inactive
13) O=C1/C=C/[C@@H](O)[C@@H]2C[C@@H](O)C[C@H]2/C=C/CCC[C@H](C(F)(F)F)O1 = inactive
14) CCn1c(SC/C(=N/O)c2ccccc2)nnc1-c1ccccc1 = inactive
15) COc1cc2c3c(n(C4CCNCC4)c(=O)c2cc1OC)-c1cc2c(cc1C3=O)OCO2 = active
16) O=C(O)COc1c(Cl)cc([N+](=O)[O-])cc1Cl = inactive
17) CCOC(=O)Cn1c(=O)c2sc3ncccc3c2n2nnc(-c3ccccc3)c12 = inactive
18) O=C(Nc1ccccc1)Nc1ncnc2c1ncn2-c1ccccc1 = inactive
19) O=C1/C(=C/c2ccc([N+](=O)[O-])s2)Oc2cc(Cl)ccc21 = inactive
20) O=C1/C=C/[C@@H](O)[C@@H]2C[C@@H](O)C[C@H]2/C=C/CCC[C@@H](C(F)(F)F)O1 = inactive
21) CCn1cc(C(=O)O)c(=O)c2cc(F)c(N3CCNCC3)cc21 = inactive
22) COc1cc2c3c(n([C@H]4CCOC4)c(=O)c2cc1OC)-c1cc2c(cc1C3=O)OCO2 = inactive
23) COc1ccc(-c2cc(-c3ccccc3)nc(SCCCCCCC(=O)NO)n2)cc1 = inactive
24) CCN(CCCNc1cc2c(c(N)c1S(=O)(=O)O)C(=O)c1ccccc1C2=O)c1ccccc1 = inactive
25) Cc1cc(=O)n2nnc3cc(Cl)c(Cl)cc3n12 = inactive
26) O=C(/C=C/c1cccc(B(O)O)c1)c1cccc(B(O)O)c1 = active
27) O=c1[nH]c(=O)n(C2C[C@H](O)[C@@H](CO)O2)cc1C(F)(F)F (stereo not given in full) = inactive
28) CNS(=O)(=O)Oc1ccc(-c2ccc3occc3c2)cc1 = inactive
29) CCc1cc(Cl)c(OC)c(C(=O)NCC2CCCN2CC)c1O (stereo not given) = inactive
30) COc1cc(CNC(=O)C2CSC3(C)c4ccccc4C(=O)N23)cc(OC)c1OC (stereo not given) = inactive
31) COc1ccc(/C(=N\N)C(=O)c2ccccc2)cc1 (tested in a mixture with another compound) = inactive
32) C/C(=N\O)c1ccc(NC(=O)CSc2nnc(-c3ccccc3)n2-c2ccccc2)cc1 = inactive
33) CC[C@H]1OC(=O)[C@H](C)[C@@H](O[C@H]2C[C@@](C)(OC)[C@@H](O)[C@H](C)O2)[C@H](C)[C@@H](O[C@@H]2O[C@H](C)C[C@H](N(C)C)[C@H]2O)[C@](C)(OC)C/C(C)=C2/O[C@@]1(C)C=C2C = inactive
34) COc1ccc(C(=O)CC(CC(=O)c2ccc(OC)cc2)c2c(C)nn(-c3ccccc3)c2Cl)cc1 = inactive
35) COc1ccc(-c2cc(-c3ccccc3)nc(SCCCC(=O)NO)n2)cc1 = active
36) COc1cc(-c2nn(-c3cccc(NC(=O)CCN4CCN(Cc5ccccc5)CC4)c3)cc2-c2ccncc2)ccc1Cl = active
37) CN(C)c1nc(N)c2nccnc2n1 = inactive
38) CCN(CC)CCCOc1cccc2c1C(=O)c1cccc(OCCCN(CC)CC)c1C2=O = inactive
39) Cc1c(C(N)=O)sc2c1c(=O)n(Cc1ccccc1)c1nnc(-c3ccc(Br)cc3)n21 = inactive
40) Cc1ccc(NC(=S)NNC(=S)Nc2ccc(C)cc2)cc1 = inactive

====

Test system: DU-145 prostate
Test: NCI-60 one-dose screen, 48 h (100 = growth as untreated, 0 = no growth, -100 = all killed)
Details: 10 µM
Description: Cells are grown in 96 well plates and exposed to the test compound for 48 hours. Compounds are tested at a single concentration, which is 10^-5 M for most compounds. The reported endpoint is percent growth (GI% or GIPRCNT), where numbers from 0 - 100% represent growth inhibition, and numbers from -100% - 0 represent cell death. For example, a value of 40 represents 60% growth inhibition. A value of 0 means no net growth occurred over the course of the experiment. […]
Compounds without any hit were thinned out: in the full panel of roughly 83,000, 20% have a hit. The source made the active and inactive calls. The calls were made as follows: active = growth percent below 10; inactive = the rest.
readoutName: growth

1. CCOC(=O)CC(S(=O)(=O)c1ccccc1)S(=O)(=O)c1ccccc1 = 111% (inactive)
2. COc1cc2c(cc1OC)C(C(CCCCCC(CCC(C)C)C1NCCc3cc(OC)c(OC)cc31)CCC(C)C)NCC2 (stereo not given) = -100% (active)
3. O=C(CCn1cnc2c(cc(-c3ccccc3)n2-c2ccccc2)c1=O)Nc1ccc(F)cc1 = 85.9% (inactive)
4. COc1ccc(-c2onc(N)c2-c2cc(OC)c3c(c2)OCO3)cc1 = 29.3% (inactive)
5. NC(N)=N/N=C(\c1ccccc1)C(O)c1ccccc1 (stereo not given) = 112% (inactive)

====

tested on: OVCAR-4 ovarian; test: NCI-60 one-dose screen, 48 h; details: 10 µM
The panel holds about 83,000 compounds, 20% with a hit somewhere; the sample as a whole holds those more often. Active and inactive are the calls of the source. How the source made its calls: active means growth percent below 10; inactive means the rest.
Possible outcomes: active, inactive

1) CC[C@@H](C(=O)[C@H](C)[C@H](O)[C@@H](C)[C@H]1O[C@H]([C@@H](CC)C(=O)O)CC[C@H]1C)C1O[C@]2(C=C[C@@H](O)[C@]3(CC[C@@](C)([C@H]4CC[C@](O)(CC)[C@H](C)O4)O3)O2)[C@H](C)C[C@@H]1C (some centres not stated) = inactive
2) CCN1CC(CCN2CCOCC2)C(C(c2ccccc2)c2ccccc2)C1=O (configuration not stated) = inactive
3) COc1cccc(-c2nc3sccn3c2-c2cccc(S(C)(=O)=O)c2)c1 = inactive
4) CC(=O)Nc1ccc(S(=O)(=O)N/N=C(\C)c2ccc(C)cc2C)cc1 = inactive
5) COc1ccc(C2CC(c3cc(OC)c(OC)c(OC)c3)=NN2)cc1 (configuration not stated) = inactive
6) COc1ccc(C(=O)N2C=Cc3ccccc3C2C#N)cc1 (configuration not stated) = inactive
7) C=CCn1c(SCC(=O)Nc2ccc(C(=O)/C=C/c3ccc(Cl)cc3)cc2)nnc1-c1cc(-c2ccccc2)nc2ccccc12 = inactive
8) O=C(O)c1ccc(-n2cc(CNc3ccc(Cl)cc3)c(-c3ccccc3)n2)cc1 = inactive
9) Cc1noc(C)c1CSc1ccccc1C(=O)N1CCN(c2cccc(C(F)(F)F)c2)CC1 = inactive
10) C[C@]12CC[C@@H]3c4ccc(O)cc4CC[C@H]3[C@@H]1CC[C@@H]2NS(=O)(=O)c1ccc(C(F)(F)F)cc1 = inactive
11) C=CCSC(CC)(CC)C(=O)NC = inactive
12) CN(C)c1ccc(/C=N/NC(=O)c2cccc3ccccc23)c(Cl)c1 = inactive
13) CN1CCc2c(sc3nc4n(-c5ccc(Cl)cc5)c(=O)[nH]n4c(=O)c23)C1 = inactive
14) C[n+]1c2ccccc2nc2ccccc21 = inactive
15) O=C1c2ccccc2C(=O)c2c1ccc1c(=O)n(-c3ccccc3C(F)(F)F)nnc21 = active
16) CC[C@@H]1NC(=O)[C@H]([C@H](O)[C@H](C)C/C=C/c2ccc(CN3C(=O)CCCC3=O)cc2)N(C)C(=O)[C@H](C(C)C)N(C)C(=O)[C@H](CC(C)C)N(C)C(=O)[C@H](CC(C)C)N(C)C(=O)[C@@H](C)NC(=O)[C@H](C)NC(=O)[C@H](CC(C)C)N(C)C(=O)[C@H](C(C)C)NC(=O)[C@H](CC(C)C)N(C)C(=O)CN(C)C1=O = inactive
17) Cc1nn(-c2ccccc2)c2nc(Cl)c(C=O)c(-c3ccccc3)c12 = inactive
